# Tested on: HL-60(TB) leukemia
# Assay remarks: NCI-60 one-dose screen, 48 h
# Conditions: 10 µM unless noted
The panel holds about 83,000 compounds, 20% with a hit somewhere; the sample as a whole holds those more often. The source made the active and inactive calls. The calls were made as follows: active = growth percent below 10; inactive = the rest.
Mark one answer only. Choices: 1 (active), 0 (inactive)

Below are worked cases with known answers.
Q) Give the logged outcome of this assay for the following molecule: CC(=O)/C(=C/c1ccc(Br)cc1)C(=O)c1ccccc1
A) 0

Q) Could you do the same for CN(C)Cc1cc(C(C)(C)C)cc(Br)c1O , please?
A) 0

Q) Could you do the same for c1ccc2c(c1)OC1OC2Oc2ccccc21 , please?
A) 0

Q) Could you do the same for NC1=Nc2ccccc2N(O)N1 , please?
A) 0

Q) Could you do the same for O=C(Nc1ccc2c(c1)C(=O)c1ccccc1-2)c1ccccc1 , please?
A) 0

Q) Could you do the same for CN(C)CCCN(Cc1ccccc1O)C(=S)Nc1ccc(Cl)cc1 , please?
A) 0

Q) Could you do the same for Clc1nc(-c2ccccn2)nc2sc3c(c12)CCCCCC3 , please?
A) 0

Q) Could you do the same for CCOC(=O)CNC1=C(Cl)C(=O)N(Cc2ccc(Cl)cc2)C1=O , please?
A) 0

Q) Could you do the same for C[n+]1ccc(CCc2c[nH]c3ccccc23)cc1 , please?
A) 0

Q) Could you do the same for O=C(NC[C@H](O)CO)c1ccncc1Nc1ccc(I)cc1F , please?
A) 0

Others:
Q) Give the logged outcome of this assay for the following molecule: C=Cc1cnc(Nc2ccc(OC)cc2)nc1NCCCNC(=O)C1CCC1
A) 0

Q) Could you do the same for CCN(CC)CCCCCNc1cc(OC(=O)c2ccccc2)cc2cccnc12 , please?
A) 0

Q) Could you do the same for COc1cccc(NC(=O)c2sc3nc4c(cc3c2N)C(=O)CCC4)c1 , please?
A) 1

Q) Could you do the same for CC(C)=CCC[C@](C)(O)[C@H]1CC[C@]2(C)[C@@H]1CC[C@@H]1[C@@]3(C)CC/C(=N/O)C(C)(C)[C@@H]3CC[C@]12C , please?
A) 1

Q) Could you do the same for O=C(Nc1ccccc1)C(CCCCN1C(=O)c2ccccc2C1=O)N1C(=O)c2ccccc2C1=O (stereo not drawn) , please?
A) 0

Q) Could you do the same for COc1ccc2c(c1)oc1c(C)c3c(c(C)c12)C(=O)N(CCN1CCOCC1)C3=O , please?
A) 0

Q) Could you do the same for Cn1cc(-c2csc(-c3c[nH]c4ccc(F)cc34)n2)c2cccnc21 , please?
A) 0

Q) Could you do the same for O=C(Nc1ccc(Cl)c(Cl)c1)OCc1ccco1 , please?
A) 0

Q) Could you do the same for O=Cc1ccc(-c2cn3ccnc3c(-c3ccc4ncn(Cc5ccccc5)c4c3)n2)cc1 , please?
A) 0

Q) Could you do the same for COc1ccccc1-c1ccc2c(N)c(C(=O)c3ccc4c(c3)OCO4)sc2n1 , please?
A) 0

Q) Could you do the same for FC(F)(F)c1ccc(-c2cnc(-n3cc(COCCN4CCCCC4)nn3)nc2NC2CCCCCC2)cc1 , please?
A) 1

Q) Could you do the same for O=C(Nc1cccc(NC(=O)C2CCCCC2)c1)c1ccccn1 , please?
A) 0

Q) Could you do the same for Nc1nsc(C(=O)c2ccc(O)cc2)n1 , please?
A) 0
